assay: Cell viability of LPS-treated mouse peritoneal macrophages (MTT assay); type: cell-based; conditions: LPS-treated TGC-induced mouse peritoneal macrophages, 10 µM, mean ± S.E.M. (n = 4), read-out: cell viability (%) in MTT assay (values in parentheses) (converted)
Recorded viability at 10 µM values for a group of compounds are listed next.
Give the quantity in %, number only.

Answered examples (4):
CC(=O)O[C@@H]1C2C(C)(C)C(=O)C=C[C@]2(C)C2CC[C@@]3(C)[C@H](c4ccoc4)OC(=O)[C@H]4O[C@]43[C@]2(C)[C@@H]1O (some centres unmarked) [compound 5, andirolide H] :: 104
COC(=O)CC1C(C)C(=O)C2(CC3(O)C4CC(=O)OC(c5ccoc5)C4(C)CCC3(O)O2)C(OC(=O)C(C)C)C1(C)C (centres unmarked) [compound 17, carapanolide A] :: 104
CCC(=O)OC1C2(O)C(OC(C)=O)C3(C)CC24OC2(C)OC15C1CC(=O)OC(c6ccoc6)C1(C)C(OC(C)=O)CC5(O2)C4(C)C3C(OC(C)=O)C(=O)OC (centres unmarked) [compound 14, Carapanolide Q] :: 96.3
CCC(C)C(=O)OC1C2(OC(C)=O)CC3(O)C4=CC(=O)OC(c5ccoc5)C4(C)CCC3C(C)(C2=O)C(CC(=O)OC)C1(C)C (centres unmarked) [compound 10, Carapanolide C] :: 98.9

So what's the measured viability at 10 µM for this one? CCC(=O)OC1C2(OC(C)=O)C(OC(C)=O)C3(C)CC24OC2(C)OC15C(CC(=O)OC)C1(C)CC(c6occc6C1=O)C5(O2)C41COC(=O)CC31 (centres unmarked) [compound 16, guianolide A] 102
